The following compounds are listed with their measured pIC50 values.
- target-system: recombinant human mPGES-1 (Homo sapiens)
- Construct: made in house; host or cells: Rosetta E. coli (membrane/microsome fraction)
- procedure-summary: Assay A: mPGES-1 enzyme assay (HTRF detection of PGE2)
- Format: biochemical
- settings: biological assay A; microsomes from E. coli expressing recombinant human mPGES-1; read-out: mPGES-1 inhibitory effect IC50
pIC50: −log10 of the molar value.

| compound | target-system | pIC50 |
| --- | --- | --- |
| CC1(C(=O)NCc2ccc(Cl)c(Nc3nc4cc(Cl)c(N5CCOCC5)cc4[nH]3)c2)CCCCC1 | recombinant human mPGES-1 (Homo sapiens) | 7.22 |
| N#Cc1cc2nc(Nc3cc(CNC(=O)C4(C(F)(F)F)CC4)ccc3Cl)[nH]c2cc1N1CCCC(C(F)(F)F)C1 (stereo not drawn) | recombinant human mPGES-1 (Homo sapiens) | 7.82 |
| O=C(NCc1ccc(Cl)c(Nc2nc3cc(Cl)c(N4CCC[C@@H]4CO)cc3[nH]2)c1)C1(C(F)(F)F)CC1 | recombinant human mPGES-1 (Homo sapiens) | 6.84 |
| CC(C)(C)C(=O)NCc1ccc(Cl)c(Nc2nc3cc(Cl)c(N4CCC(C#N)C4)cc3[nH]2)c1 (stereo not drawn) | recombinant human mPGES-1 (Homo sapiens) | 6.97 |
| Cn1c(Nc2cc(CNC(=O)C3(C(F)(F)F)CC3)ccc2Cl)nc2ccc(N3CCCC3)cc21 | recombinant human mPGES-1 (Homo sapiens) | 6.91 |
| Cn1c(Nc2cc(CNC(=O)C3CC3)ccc2C(F)(F)F)nc2cc(Cl)c(N3CCC(C(F)(F)F)CC3)cc21 | recombinant human mPGES-1 (Homo sapiens) | 8.62 |

----------
- target-system: recombinant human mPGES-1 (Homo sapiens)
- Construct: made in house; host or cells: Rosetta E. coli (membrane/microsome fraction)
- Sequence (O14684 1-152): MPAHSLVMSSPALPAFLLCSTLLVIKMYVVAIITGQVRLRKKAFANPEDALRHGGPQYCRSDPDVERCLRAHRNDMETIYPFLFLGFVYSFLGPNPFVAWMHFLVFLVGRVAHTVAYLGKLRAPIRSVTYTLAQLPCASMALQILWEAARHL
- procedure-summary: Assay A: mPGES-1 enzyme assay (HTRF detection of PGE2)
- Format: biochemical
- settings: biological assay A; microsomes from E. coli expressing recombinant human mPGES-1; read-out: mPGES-1 inhibitory effect IC50
Output Met for records whose IC50 is lower than 9 nM, Not met for records at or above 9 nM.

| molecule | target-system | answer-label |
| --- | --- | --- |
| Cn1c(Nc2cc(CNC(=O)C3(C(F)(F)F)CC3)cc(F)c2Cl)nc2cc(Cl)c(N3CCC(C(F)(F)F)CC3)cc21 | recombinant human mPGES-1 (Homo sapiens) | Met |
| N#Cc1c(N2CCCC(C(F)(F)F)C2)ccc2nc(Nc3cc(CNC(=O)C4(C(F)(F)F)CC4)ccc3Cl)[nH]c12 (centres unmarked) | recombinant human mPGES-1 (Homo sapiens) | Not met |
| Cn1c(Nc2cc(CNC(=O)C3(C)COC3)ccc2Cl)nc2cc(Cl)c(N3CCCC(C(F)(F)F)C3)cc21 (centres unmarked) | recombinant human mPGES-1 (Homo sapiens) | Not met |
| CCC(C)(CC)C(=O)NCc1ccc(Cl)c(Nc2nc3cc(N4CCCC4)ccc3[nH]2)c1 | recombinant human mPGES-1 (Homo sapiens) | Not met |
| COCCn1c(Nc2cc(CNC(=O)C3(C(F)(F)F)CC3)ccc2Cl)nc2cc(Cl)c(N3CCC(C(F)(F)F)CC3)cc21 | recombinant human mPGES-1 (Homo sapiens) | Met |
| COC[C@@H]1CCCN1c1cc2c(cc1Cl)nc(Nc1cc(CNC(=O)C3(C(F)(F)F)CC3)ccc1Cl)n2C | recombinant human mPGES-1 (Homo sapiens) | Met |
